Test system: PC-3 prostate
Assay: NCI-60 one-dose screen, 48 h
Details: 10 µM unless noted
Procedure: Growth inhibition of the PC-3 human tumor cell line is measured as a screen for anti-cancer activity. Cells are grown in 96 well plates and exposed to the test compound for 48 hours. Compounds are tested at a single concentration, which is 10^-5 M for most compounds. The reported endpoint is percent growth (GI% or GIPRCNT), where numbers from 0 - 100% represent growth inhibition, and numbers from -100% - 0 represent cell death. For example, a value of 40 represents 60% growth inhibition. […]
This is part of a sample that, as a whole, favours compounds with a hit. Of some 83,000 tested, about 20% had one in any assay. Active and inactive are the calls of the source. How the source made its calls: active means growth percent below 10; inactive means the rest.
Your reply should match one of these outcome classes. 1.0 (active), 0.0 (inactive)

## Task Short answer needed: outcome of this test for "O=C(COc1ccc(/C=C2\Oc3ccccc3C2=O)cc1)Nc1nccs1" ?
## Result 0.0

## Task Short answer needed: outcome of this test for "COc1cc(CNC(=O)CCCC/C=C/C(C)C)ccc1OCc1cn(-c2ccc(C(F)(F)F)cc2)nn1" ?
## Result 0.0

## Task How did this test come out for "CN1CCN(c2ccc(Nc3ncc4[nH]c(=O)n(Cc5ccccc5N)c4n3)cc2)CC1" ?
## Result 0.0

## Task Could you kindly confirm the outcome this assay logged for "Cn1cc(-c2nc(-c3c[nH]c4c(Cl)nccc34)cs2)c2ccccc21" ?
## Result 0.0

## Task Would you mind telling me which call this test gave "C#CCOc1cccc(Nc2c(Cl)c(CCl)nc3ccc(Oc4ccccc4)cc23)c1" ?
## Result 0.0

## Task # outcome recorded in this test, key = "Cn1ccnc1C(=O)/C=C/c1ccc(C(=O)Nc2ccccc2F)cc1"
## Result 0.0

## Task // outcome(item) with item = "N/C(=N\c1nc2ccccc2s1)NC(=O)Nc1ccccc1"
## Result 0.0

## Task Called result for "O=C(OCc1ccc2c(Br)cc(Br)c(O)c2n1)N1CCN(C(=O)c2cc3ccccc3[nH]2)CC1"
## Result 0.0

## Task Could you please tell me the result logged for "C/C(=C(\c1ccc(OCCCN(C)C)cc1)c1ccc(OC(=O)Cc2ccccc2)cc1)c1ccc(Cl)cc1" in this assay?
## Result 0.0

## Task Hey, what did the test say about "NCCCCCNc1noc(Cc2c[nH]c3cc(Br)ccc23)n1" ?
## Result 1.0

## Task Write down the call the test reported for this compound. Item: "CCc1ccc(Cc2cnc(NC(=O)c3cc(C)oc3C)s2)cc1"
## Result 0.0

## Task State the result this test recorded for "O=S(=O)(Nc1ccc(Br)cc1)c1ccc(-c2cnc(C3CC3)o2)cc1" .
## Result 0.0

## Task What did the test return for "N#C/C(Sc1nc2sc3c(c2c(=O)n1Cc1ccccc1)CCCC3)=C1/SC=C(c2ccc(Cl)cc2)N1c1ccccc1" ?
## Result 0.0

## Task Test call, this compound: "O=C(Nc1ncc(Cc2ccccc2)s1)c1ccc2c(c1)OCCO2"
## Result 0.0

## Task Can you look up the reported call for "O=C(NS(=O)(=O)c1ccccc1)n1cc(-c2ccncc2)c(-c2cc(O)cc(Cl)c2)n1" for me?
## Result 0.0

## Task Hi, sorry to bother you, what did the test record for "COc1cc2nc3cc([N+](=O)[O-])ccc3c(NCCCNCCO)c2cc1OC" ?
## Result 1.0

## Task What call does the record list for "O=C(Nc1ncc(Cc2ccccc2Cl)s1)c1ccc2c(c1)OCCO2" ?
## Result 0.0

## Task Please share the test call associated with "COc1cccc(NC(=O)c2sc3nc(C)c(C(=O)c4ccccc4)cc3c2N)c1" .
## Result 0.0

## Task I would be grateful if you could indicate the recorded call for "O=c1c(Cc2ccc(F)cc2)cc(-c2ccccc2)nn1C/C(=N/O)c1ccccc1" .
## Result 0.0

## Task // return assay outcome for "C=C(C)[C@@H]1CCC[C@]2(C(=O)OC)CC[C@]3(C)[C@@H](CC[C@@H]4[C@@]5(C)CCCNC(C)(C)[C@@H]5CC[C@]43C)[C@@H]12"
## Result 0.0

## Task Query: recorded result category for "CN1CCN(CC(=O)N(C)c2ccc(N=C(c3ccccc3)c3c(O)[nH]c4ccc([N+](=O)[O-])cc34)cc2)CC1" in this test
## Result 0.0

## Task Fill in: this test's call for CCN1C(=O)N(CC)C2C1NC(=S)N2/N=C/C=C/c1cccs1 (configuration not stated) is ___
## Result 0.0

## Task What classification did "O=C(Nc1cccc2c1C(=O)c1cccc(NC(=O)c3ccc(C(=O)Nc4cccc5c4C(=O)c4cccc(NC(=O)c6ccccc6)c4C5=O)cc3)c1C2=O)c1ccccc1" end up with in this test?
## Result 0.0

## Task Which result was noted for this compound in the test: "CC(=O)O[C@H]1CC[C@@]2(C)C(=CC[C@@H]3[C@@H]2CC[C@]2(C)C(Cl)=C(c4nc5ccc(Cl)cn5c4NC(C)(C)C)C[C@@H]32)C1"
## Result 0.0

## Task // param item: "O=c1cc(-c2nccc3c2[nH]c2ccccc23)c2cc(Cl)ccc2o1" ; yields the recorded call
## Result 0.0

## Task Look up the recorded call for "Cn1ncc(CC(=O)O)c1-n1nnc2cc(Cl)ccc2c1=O" in this test.
## Result 0.0

## Task What did this assay record as the result for "O=C(Cn1cc(CSc2nc3ccccc3o2)nn1)Nc1ccc([N+](=O)[O-])cc1" ?
## Result 0.0

## Task Lab log entry: Nc1ncnc2c1N=C(c1ccc([N+](=O)[O-])cc1)CC(c1ccc3c(c1)OCO3)N2 (configuration not stated) — outcome as called in the assay?
## Result 0.0

## Task For this compound, state the assay outcome: C=C(CNCCO)[C@@H]1CC[C@]2(CO)CC[C@]3(C)[C@H](CC[C@@H]4[C@@]5(C)CCC(NCCO)C(C)(C)[C@@H]5CC[C@]43C)[C@@H]12 (some centres not stated)
## Result 0.0

## Task Check the results log: what was the call for "CSc1nc(CC(C)C)c(C#N)c(=O)n1C" ?
## Result 0.0

## Task In this assay, the call recorded for "CCCCCCCCCCCCCCCCCCOc1ccccc1CC(=O)OCC[N+]1(C)CCCCC1" was what?
## Result 1.0

## Task For "COc1cc(CNC(=O)CCCC/C=C/C(C)C)ccc1OCc1cn(-c2cccc([N+](=O)[O-])c2)nn1" , which call appears in the assay record?
## Result 0.0

## Task Field: outcome | Entry: "N#Cc1c(-c2ccc(Cl)cc2)nc(NN=Cc2cccc(Cl)c2)nc1N1CCOCC1"
## Result 0.0

## Task Per the records of this test, what outcome belongs to "C=C(C)[C@@H]1CC[C@]2(C#N)CC[C@]3(C)[C@H](CC[C@@H]4[C@@]5(C)CCCNC(C)(C)[C@@H]5CC[C@]43C)[C@@H]12" ?
## Result 0.0

## Task Dear all, I need the recorded test outcome for "COc1cccc(-c2nn(-c3ccccc3)cc2-c2ccnc(-c3cccnc3)c2)c1" , thank you.
## Result 0.0

## Task Check the results log: what was the call for N#CC1=C(N)Oc2c(ccc3cccnc23)C1c1ccccc1 (configuration not stated) ?
## Result 0.0

## Task What call does the record list for "c1ccc(-c2nc(N3CCNCC3)c3oc(-c4ccccc4)nc3n2)cc1" ?
## Result 1.0

Each recorded value in this set is attributed to PubChem BioAssay (NCI).
